Tested on: Caco-2
Assay: Ratio of permeability from basolateral to apical side to apical to basolateral side of human Caco-2 cells
Assay type: ADME, cell-based
measured_parameter: Ratio

• N#Cc1c(-c2cccc(N3CCNCC3)c2)cc(-c2ccc(F)cc2O)nc1NC(=O)c1ccco1 = 1.2
• N#Cc1c(-c2cccc(NC(=O)CCN)c2)cc(-c2ccc(F)cc2O)nc1NC(=O)c1cccs1 = 49
• CCN1CCN(c2cccc(-c3cc(-c4ccc(F)cc4O)nc(NC(=O)c4ccco4)c3C#N)c2)CC1 = 1
• CN(C)CC(=O)Nc1cccc(-c2cc(-c3ccc(F)cc3O)nc(NC(=O)c3ccco3)c2C#N)c1 = 1.4
• CN(C)CCC(=O)Nc1cccc(-c2cc(-c3ccc(F)cc3O)nc(NC(=O)c3ccco3)c2C#N)c1 = 4.3
• CN(C)CC(=O)Nc1cccc(-c2cc(-c3ccccc3O)nc(NC(=O)c3cccs3)c2C#N)c1 = 1

---

Biological target: KiSS-1 receptor (Homo sapiens)
Sequence (Q969F8 whole entry): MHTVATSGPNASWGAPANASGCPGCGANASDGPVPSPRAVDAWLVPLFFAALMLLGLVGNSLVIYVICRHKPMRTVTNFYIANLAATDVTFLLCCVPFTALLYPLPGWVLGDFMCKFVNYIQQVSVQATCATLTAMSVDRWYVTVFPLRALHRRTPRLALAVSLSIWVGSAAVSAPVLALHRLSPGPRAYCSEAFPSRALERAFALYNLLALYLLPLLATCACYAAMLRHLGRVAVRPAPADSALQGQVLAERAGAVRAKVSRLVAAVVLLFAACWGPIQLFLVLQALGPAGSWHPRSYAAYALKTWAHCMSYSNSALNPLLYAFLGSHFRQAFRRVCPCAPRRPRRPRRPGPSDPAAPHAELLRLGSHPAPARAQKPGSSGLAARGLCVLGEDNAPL
Assay: Displacement of [125I]metastin from human GPR54 receptor expressed in CHO cells
Type: cell-based
pIC50: −log10 of the molar value.
measured_parameter: pIC50

• N#Cc1c(-c2cccc(NC(=O)CN)c2)cc(-c2ccc(F)cc2O)nc1NC(=O)c1ccco1 = 8.39
• CN(C)CCNC(=O)c1cccc(-c2cc(-c3ccc(F)cc3O)nc(NC(=O)c3ccco3)c2C#N)c1 = 7.70
• CCNC(CC)CC(=O)Nc1cccc(-c2cc(-c3ccc(F)cc3O)nc(NC(=O)c3ccco3)c2C#N)c1 (racemic) = 8.10
• CCN(CC)CC(=O)Nc1cccc(-c2cc(-c3ccc(F)cc3O)nc(NC(=O)c3ccco3)c2C#N)c1 = 7.52
• CCN1CCN(c2cccc(-c3cc(-c4ccc(F)cc4O)nc(NC(=O)c4ccco4)c3C#N)c2)CC1 = 7.96
• N#Cc1c(-c2cccc(NC(=O)[C@H]3CCCN3)c2)cc(-c2ccc(F)cc2O)nc1NC(=O)c1ccco1 = 7.80
• N#Cc1c(-c2cccc(NC(=O)CN3CCCC3)c2)cc(-c2ccc(F)cc2O)nc1NC(=O)c1ccco1 = 7.82
• CN(C)CCC(=O)Nc1cccc(-c2cc(-c3ccc(F)cc3O)nc(NC(=O)c3ccco3)c2C#N)c1 = 8.00
• N#Cc1c(-c2cccc(NC(=O)C[C@H]3CCCN3)c2)cc(-c2ccc(F)cc2O)nc1NC(=O)c1ccco1 = 8.00
• N#Cc1c(-c2cccc(NC(=O)C[C@@H]3CCCN3)c2)cc(-c2ccc(F)cc2O)nc1NC(=O)c1ccco1 = 8.10
• CN1CCN(c2cccc(-c3cc(-c4ccc(F)cc4O)nc(NC(=O)c4ccco4)c3C#N)c2)CC1 = 7.82
• N#Cc1c(-c2cccc(NC(=O)CC3CCCCN3)c2)cc(-c2ccc(F)cc2O)nc1NC(=O)c1ccco1 (racemic) = 7.85
• CCNC(C)CC(=O)Nc1cccc(-c2cc(-c3ccc(F)cc3O)nc(NC(=O)c3ccco3)c2C#N)c1 (racemic) = 8.00
• CN(C)CC(=O)Nc1cccc(-c2cc(-c3ccc(F)cc3O)nc(NC(=O)c3ccco3)c2C#N)c1 = 7.92

---

Each entry below lists one item and its recorded logD value.
Assay: Lipophilicity, log D at pH 7.4
Type: physicochemical
Details: buffer
measured_parameter: logD

• CNCCC(=O)Nc1cccc(-c2cc(-c3ccc(F)cc3O)nc(NC(=O)c3ccco3)c2C#N)c1 = 2.13
• CN(C)CCC(=O)Nc1cccc(-c2cc(-c3ccc(F)cc3O)nc(NC(=O)c3ccco3)c2C#N)c1 = 2.95
• CN(C)CC(=O)Nc1cccc(-c2cc(-c3ccc(F)cc3O)nc(NC(=O)c3ccco3)c2C#N)c1 = 3.31
• CNCC(=O)Nc1cccc(-c2cc(-c3ccc(F)cc3O)nc(NC(=O)c3ccco3)c2C#N)c1 = 2.66
• N#Cc1c(-c2cccc(NC(=O)CCN)c2)cc(-c2ccc(F)cc2O)nc1NC(=O)c1cccs1 = 2.14
• CN(C)CC(=O)Nc1cccc(-c2cc(-c3ccccc3O)nc(NC(=O)c3cccs3)c2C#N)c1 = 3.07
• N#Cc1c(-c2cccc(N3CCNCC3)c2)cc(-c2ccc(F)cc2O)nc1NC(=O)c1ccco1 = 2.72
• CCN1CCN(c2cccc(-c3cc(-c4ccc(F)cc4O)nc(NC(=O)c4ccco4)c3C#N)c2)CC1 = 4.1
• N#Cc1c(-c2cccc(NC(=O)C[C@H]3CCCN3)c2)cc(-c2ccc(F)cc2O)nc1NC(=O)c1ccco1 = 2.13
• N#Cc1c(-c2cccc(NC(=O)C[C@@H]3CCCN3)c2)cc(-c2ccc(F)cc2O)nc1NC(=O)c1ccco1 = 2.29
